This collection of values is drawn from paper PMC3426363.

- target: UGT1A1 (Homo sapiens)
- Sequence (P22309 26-533): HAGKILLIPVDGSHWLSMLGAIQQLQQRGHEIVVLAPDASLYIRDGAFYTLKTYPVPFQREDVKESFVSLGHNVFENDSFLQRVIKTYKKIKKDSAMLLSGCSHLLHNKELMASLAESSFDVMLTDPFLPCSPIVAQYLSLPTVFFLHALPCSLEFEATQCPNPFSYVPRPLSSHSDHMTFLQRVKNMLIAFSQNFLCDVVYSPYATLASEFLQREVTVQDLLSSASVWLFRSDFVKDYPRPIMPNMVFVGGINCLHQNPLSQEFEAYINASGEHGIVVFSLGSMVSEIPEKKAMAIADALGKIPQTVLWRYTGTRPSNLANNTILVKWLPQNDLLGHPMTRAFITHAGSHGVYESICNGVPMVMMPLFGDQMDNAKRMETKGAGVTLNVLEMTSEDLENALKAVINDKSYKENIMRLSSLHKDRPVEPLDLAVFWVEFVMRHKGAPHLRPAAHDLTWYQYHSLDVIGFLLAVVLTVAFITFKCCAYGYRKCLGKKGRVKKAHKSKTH
- method summary: UGT1A1 glucuronidation kinetics of flavonols
- Type: in vitro ADME
- recorded conditions: formation of 7-O-glucuronide, substrate inhibition constant
measured parameter: Ks (µM)

Answered examples (2):
{"compound": "O=c1c(O)c(-c2ccc(O)cc2)oc2cc(O)ccc12 [3,7,4’THF, 3,7,4’-tryhydroxyflavone]", "Ks [µM]": 3.53}
{"compound": "O=c1c(O)c(-c2ccccc2)oc2cc(O)cc(O)c12 [3,5,7THF, 3,5,7-trihydroxyflavone]", "Ks [µM]": 1.22}

P. O=c1c(O)c(-c2ccc(O)cc2)oc2cc(O)cc(O)c12 [3,5,7,4’QHF, 3,5,7,4’-tetrahydroxyflavone]
Q. O=c1c(O)c(-c2ccccc2)oc2cc(O)ccc12 [3,7DHF, 3,7-dihydroxyflavone]
Which record would sort first by descending Ks, P or Q ? Please reply using the label of the selected record.
P
(P: 2.81 µM, Q: 1.21 µM)
